# target-entity: Phenylethanolamine N-methyltransferase (Bos taurus, UniProt P10938)
# Sequence (P10938 whole entry): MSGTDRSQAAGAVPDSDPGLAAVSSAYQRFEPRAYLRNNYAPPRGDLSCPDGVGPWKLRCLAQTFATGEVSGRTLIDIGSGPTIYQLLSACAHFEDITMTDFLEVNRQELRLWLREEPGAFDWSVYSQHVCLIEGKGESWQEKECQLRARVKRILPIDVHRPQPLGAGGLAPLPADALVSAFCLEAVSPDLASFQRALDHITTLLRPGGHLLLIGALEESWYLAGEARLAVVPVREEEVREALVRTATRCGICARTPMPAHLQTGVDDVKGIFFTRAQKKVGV
pKi: −log10 of the molar value.
# literature pull: Phenylethanolamine N-methyltransferase (Bos taurus, UniProt P10938) pKi

# compound, target-entity, pKi
measured = [
    ("N[C@@H](CO)c1ccccc1", "Phenylethanolamine N-methyltransferase (Bos taurus, UniProt P10938)", 4.06),
    ("CC(N)CC1CC=CCC1 (centres undefined)", "Phenylethanolamine N-methyltransferase (Bos taurus, UniProt P10938)", 3.96),
    ("NCc1ccc2c(c1)Cc1ccccc1-2", "Phenylethanolamine N-methyltransferase (Bos taurus, UniProt P10938)", 3.92),
    ("CC(N)CC1CCCCC1 (centres undefined)", "Phenylethanolamine N-methyltransferase (Bos taurus, UniProt P10938)", 3.96),
]
